Taken from patent US9371374.

Target: biotinylated HCV core peptide 141-161 (Peptide 2) (HCV-1)
Assay: EIA, captured mAb
Reported Reactivity (OD492) is given for each of the following binders.
ENDPOINT NAME: Reactivity (OD492) (OD)

HCV 208A-874 (antibody, V domains shown) VH: QVQLQQPGAELVKPGASVKLSCKASGYTLSSYWMHWVKQRPGQGLEWIGEIHPSDSYTSYNQKFKDKATLTVDKSSSTAYMQLSSLTSEDSAVYYCARGGYYRYDEFAYWGQGTLVTVSA VL: DIVMTQSHKFMSTSIGDRVSITCKASQNVSPAVAWYQQKPGQSPKLLIYSASSRYTGVPDRFTGSGSGTAFTFTISSVQAEDLAVYFCQQHFSTPWTFGGGTMLEIKR : 0.73
HCV 208B-281 (antibody, V domains shown) VH: QGQLQQSGAELVKPGASVKLSCKTSGFTFSSSYISWLKQRPGQSLEWIAWIYAGTGGTNYNQKFTDKAQLTVDTSSSTAYMQFSSLTTEDSAIYYCAISGTGFIYWGQGTLVTVSA VL: DVLMTQTPLSLPVSLGDQASISCRSSQSLVHNNGNTYLEWFLQKPGQSPKLLIYKVSNRFSGVPDRFSGSGSGTDFTLKISRVEAEDLGVYYCFQGSHVPFTFGSGTKLEIKR : 0.16
